I'd appreciate it if you could supply composite z-score values for the items below.
- tested_target: Alpha-bungarotoxin (Bungarus multicinctus)
- method_notes: alpha-bungarotoxin binders on microarray, profiling panel, artefact control for SMM control protein annotation, biochemical, small-molecule microarray, Alexa647 label, 635/667 nm fluorescence (AID 1117)
- setup_conditions: alpha-BTX-A647 binding fluorescence, higher = more signal
Answers are plain numbers.

# example entries with known answers
What does the data say about its composite z-score? Entry: CO[C@H]1O[C@H](CO)[C@@H](OC(=O)Nc2ccc(C(F)(F)F)cc2)[C@H](OC(=O)Nc2ccc3c(c2)OCO3)[C@@H]1OC(=O)Nc1ccc2c(c1)OCO2
0.943

What does the data say about its composite z-score? Entry: CCCC[C@H]1OB(O)C[C@H]2C1=C(COC)C[C@H]1C(=O)N(C)C(=O)[C@H]12
1.16

What does the data say about its composite z-score? Entry: COc1ccc([Si](C)(C)[C@@H]2[C@@H](CCO)O[C@]3(C(=O)N(Cc4ccc(N(C=O)c5ccccc5)cc4)c4ccccc43)[C@H]2C)cc1
1.62

What does the data say about its composite z-score? Entry: COc1ccc(CCNC(=O)[C@@]2(Sc3ccc(C)cc3)CC(=O)N(C(C)C)[C@@H]2c2ccc(CO)cc2I)cc1
-0.333

What does the data say about its composite z-score? Entry: C=CCNC(=O)[C@H]1[C@@H]2C(=O)O[C@@H](c3ccccc3)[C@@H](c3ccccc3)N2[C@@H](c2ccccc2OCCO)[C@]12C(=O)Nc1ccc(C#CCCO)cc12
0.365

What does the data say about its composite z-score? Entry: COc1ccc(C(O)C2C=CC3C(=O)N(Cc4ccccc4)C(=O)C3N2n2cnnc2)cc1OCc1ccccc1 (stereo not drawn)
0.161

Lab note: each compound below needs its composite z-score filled in.
1. O=C1C[C@@](C(=O)NC2CC2)(c2ccc([N+](=O)[O-])cc2)[C@@H](c2ccc(CO)cc2I)N1C1CCCCC1
2. NC(=O)NCC#Cc1ccc2c(c1)[C@]1(C(=O)N2)[C@H](c2ccc(O)cc2)N2[C@H](c3ccccc3)[C@H](c3ccccc3)OC(=O)[C@H]2[C@@H]1C(=O)O
3. CC(C)N1C(=O)C[C@@](C(=O)NCC(F)(F)F)(c2ccc([N+](=O)[O-])cc2)[C@H]1c1ccc(CO)cc1
4. COc1cc2c(cc1OC)CN(C(=O)[C@H]1[C@@H]3C(=O)O[C@@H](c4ccccc4)[C@@H](c4ccccc4)N3[C@@H](c3ccc(O)cc3)[C@]13C(=O)Nc1ccccc13)CC2

1: 1.24; 2: -0.27; 3: 0.259; 4: 1.43

Lab note: each compound below needs its composite z-score filled in.
1. C=CCOC(=O)[C@H]1[C@@H]2C(=O)O[C@@H](c3ccccc3)[C@@H](c3ccccc3)N2[C@@H](c2ccc(OCCOC(=O)[C@H]3C[C@H]4C(=O)N[C@@H](CCCCN(C)C)C(=O)N4[C@H]3c3ccc(O)cc3)cc2)[C@]12C(=O)Nc1ccc(I)cc12
2. C=C(CCCC)/C(=C/C[C@@H](OC(C)=O)c1ccc(OCCO)cc1)c1cnc2ccccc2c1
3. COc1cc2c(cc1O)C(C1CC1)N(Cc1sc3ccccc3c1Cl)CC2 (stereo not drawn)

[0.864, 1.29, 0.281]

---

- method_notes: compound binding in COS7 lysate, probe aLAP1, primary screen, cell lysate, small-molecule microarray (AID 1124);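 further: lysate comes from COS7 cells expressing LAP1 and is applied at 0.3 µg/mL; score merges spot fluorescence near 667 nm with signal-to-noise over triplicate slides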
- setup_conditions: probe aLAP1, fluorescence, higher = more signal
result_type: composite z-score
One number for each entry.

What does the data say about its composite z-score? Entry: COc1ccc(C#Cc2ccc3c(c2)[C@]2(C(=O)N3)[C@H](C(=O)Nc3nc4ccccc4s3)[C@H]3C(=O)O[C@H](c4ccccc4)[C@H](c4ccccc4)N3[C@@H]2c2ccc(O)cc2)cc1
0.641

What does the data say about its composite z-score? Entry: COCCCNC(=O)[C@@H]1c2ccccc2C(=O)N(Cc2ccccc2Cl)[C@H]1c1ccc(CO)cc1
-0.503

What does the data say about its composite z-score? Entry: O=C1N(Cc2ccccc2)c2ccccc2[C@@H]2OC(c3ccc(OCCCO)cc3)=N[C@]12CCS(=O)(=O)c1ccccc1
-0.276

What does the data say about its composite z-score? Entry: COc1ccccc1CN1C(=O)c2ccccc2[C@@H](C(=O)NC2CC2)[C@@H]1c1ccc(CO)cc1
0.849

What does the data say about its composite z-score? Entry: NC(=O)NCC#Cc1ccc2c(c1)[C@]1(C(=O)N2)[C@H](C(N)=O)[C@H]2C(=O)O[C@H](c3ccccc3)[C@H](c3ccccc3)N2[C@@H]1c1ccc(O)cc1
0.505

Lab note: each compound below needs its composite z-score filled in.
1. C=C[C@H](CO[Si](CC)(CC)CC)N(Cc1ccc(OC(C)=O)c(OC)c1)S(=O)(=O)c1ccc(Br)cc1
2. Cc1ccc(S[C@]2(C(=O)O)CC(=O)N(C(C)C)[C@@H]2c2ccc(CO)cc2I)cc1

1: 0.897; 2: 0.73

---

I'd appreciate it if you could supply composite z-score values for the items below.
- method_notes: binders of probe aFSTL3 on microarray, primary screen, stem cell growth factor project, biochemical, small-molecule microarray, fluorescence 635/667 (AID 1064);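 further: measures binding of the biotinylated anti-FSTL3 antibody to printed compounds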
- setup_conditions: higher = more signal
Give bare numbers.

What does the data say about its composite z-score? Entry: COCCOC(=O)N1C(=O)[C@@]2(c3cc(C#CCC(C(=O)OC)C(=O)OC)ccc31)[C@H](C(=O)Nc1nc3ccccc3s1)[C@H]1C(=O)O[C@H](c3ccccc3)[C@H](c3ccccc3)N1[C@@H]2c1ccccc1OCCO
0.0949

What does the data say about its composite z-score? Entry: CCCC[C@H]1OB(O)C[C@H]2C1=C(COC)Cn1c(=O)n(-c3ccccc3)c(=O)n12
-0.516

What does the data say about its composite z-score? Entry: COCCOC(=O)N1C(=O)[C@@]2(c3cc(C#CC4(O)CCCCCC4)ccc31)[C@H](c1ccc(OCCO)cc1)N1[C@H](c3ccccc3)[C@H](c3ccccc3)OC(=O)[C@H]1[C@@H]2C(=O)N1CCN(c2ncccn2)CC1
-0.407

Lab note: each compound below needs its composite z-score filled in.
1. C=CCOC(=O)[C@H]1[C@@H]2C(=O)O[C@@H](c3ccccc3)[C@@H](c3ccccc3)N2[C@@H](c2ccc(OCCOC(=O)[C@@H]3C[C@@H]4C(=O)N[C@@H](CCCCNC(C)=O)C(=O)N4[C@@H]3c3ccc(O)cc3)cc2)[C@]12C(=O)Nc1ccccc12
2. O=C(NCCO)C1=C[C@H](Oc2ccccc2I)[C@@H](O)[C@H](N(Cc2ccco2)C(=O)Cc2ccccc2)C1
3. C=CCC(OC(C)=O)[C@@H]1[C@@H](N(Cc2cccc3ccccc23)C(=O)c2ccc(-c3ccccc3)cc2)c2cc(OCCCO)ccc2N1C(=O)c1ccc2ccccc2c1 (some centres not stated)
4. CC(C)(C)OC(=O)CC[C@]1(C(=O)N2CCOCC2)N=C(c2ccc(OCCCO)cc2)O[C@H]1c1ccccc1N=[N+]=[N-]
5. COc1cc2c(cc1OC)CN(C(=O)[C@H]1[C@@H]3C(=O)O[C@@H](c4ccccc4)[C@@H](c4ccccc4)N3[C@@H](c3ccc(O)cc3)[C@]13C(=O)Nc1ccc(C#CCCO)cc13)CC2
6. NC(=O)NCC#Cc1ccc2c(c1)[C@]1(C(=O)N2)[C@H](C(=O)Nc2nc3ccccc3s2)[C@H]2C(=O)O[C@H](c3ccccc3)[C@H](c3ccccc3)N2[C@@H]1c1ccccc1OCCO
7. COc1cc(Br)cc(C(O)C2C=CC3C(=O)N(C)C(=O)C3N2N2CCCCC2)c1OC (configuration not stated)
8. COC(=O)[C@@]1(Cc2ccccc2)[C@H]2c3cc(C(=O)N4CCCC4)n(Cc4ccc(S(C)(=O)=O)cc4)c3C[C@H]2CN1C(=O)c1ccccc1

-0.475
0.0391
-0.484
0.594
0.0257
1.85
0.0974
1

What does the data say about its composite z-score? Entry: COC(=O)[C@@]1(Cc2ccc(OC)cc2)[C@H]2c3cc(C(=O)N4CCCC4)n(Cc4ccc(O)c(OC)c4)c3C[C@H]2CN1C(=O)c1ccccc1
1.41

---

- tested_target: Torsin-1A (Homo sapiens) (UniProt O14656)
- Sequence (O14656 whole entry, looked up): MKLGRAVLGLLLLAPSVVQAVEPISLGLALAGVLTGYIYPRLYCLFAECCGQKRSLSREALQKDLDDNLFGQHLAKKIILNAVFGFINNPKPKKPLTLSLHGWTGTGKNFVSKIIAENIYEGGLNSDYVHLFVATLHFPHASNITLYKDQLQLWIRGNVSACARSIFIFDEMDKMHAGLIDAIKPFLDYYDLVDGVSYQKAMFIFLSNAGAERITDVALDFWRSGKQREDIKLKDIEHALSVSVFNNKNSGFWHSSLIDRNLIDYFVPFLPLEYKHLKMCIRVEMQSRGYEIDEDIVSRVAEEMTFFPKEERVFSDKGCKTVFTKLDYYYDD
- method_notes: small-molecule binders of mutant TOR1A in lysate, primary screen, cell lysate, small-molecule microarray, COS7 lysate, 635/667 nm fluorescence (AID 1150);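 further: score pools 667 nm emission and signal to noise measuring lysate protein binding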
- setup_conditions: COS7 hTOR1A mutant lysate, 635 nm fluorescence, higher = more signal
I'd appreciate it if you could supply composite z-score values for the items below.

# example entries with known answers
Short answer please: composite z-score, Torsin-1A (Homo sapiens) (UniProt O14656), entry CCOC(=O)C[C@H]1[C@H](OC(=O)c2ccc(C(=O)c3ccccc3)cc2)[C@@H](NC(=O)c2ccccc2)c2cc(OCCCO)ccc2N1C(=O)c1ccc2ccccc2n1
0.179

Short answer please: composite z-score, Torsin-1A (Homo sapiens) (UniProt O14656), entry O=C1[C@@]23C=C(Br)[C@H](C[C@@H]2CCOC3)[C@@]12CO2
0.219

Short answer please: composite z-score, Torsin-1A (Homo sapiens) (UniProt O14656), entry C=C(CCCC)/C(=C/C[C@@H](OC(C)=O)c1ccc(OCCO)cc1)c1cnc2ccccc2c1
0.101

Short answer please: composite z-score, Torsin-1A (Homo sapiens) (UniProt O14656), entry C[C@H]1NC(=O)[C@@]23C(=O)N[C@@H](Cc4ccccc4)C2[C@H](C)[C@@]2(C)O[C@H]2C3/C=C/C/C=C\CNC(=O)[C@@H]2CCCN2C1=O (stereo partly specified)
-0.103

Short answer please: composite z-score, Torsin-1A (Homo sapiens) (UniProt O14656), entry O=C(CS)NCCCCCCNC(=O)[C@@H]1C[C@@H]2C(=O)NCC(=O)N2[C@@H]1c1cccc(OCCO)c1
1.28

Lab note: each molecule below needs its composite z-score filled in.
1. COC(=O)[C@@]1(Cc2ccc(OC)cc2)[C@H]2c3cc(C(=O)N(C)C)n(CCc4ccccn4)c3C[C@H]2CN1C(=O)c1ccccc1
2. CCOC(=O)[C@H]1C/C=C/C[C@H](C(=O)OCC)C(=O)O[C@H]2[C@@H](OC)O[C@H](CO)[C@@H](OC(=O)c3c(OC)cccc3OC)[C@@H]2OC1=O
3. C=C[C@H](CO[Si](CC)(CC)CC)N(Cc1ccc(OC(C)=O)c(OC)c1)S(=O)(=O)c1ccc(Br)cc1
4. C=C(COC)/C(=C/C[C@H](OC(C)=O)c1ccc(CO)o1)c1cc(C(=O)OC)ccc1OC
5. CCS[C@H]1[C@@H](C(=O)O)[C@H](c2ccc(C)cc2)N(S(=O)(=O)c2ccc(C)cc2)[C@@H]1CC
6. COc1ccccc1CN1C(=O)c2ccccc2[C@@H](C(=O)NC2CC2)[C@@H]1c1ccc(CO)cc1
7. O=C1C2C=CC(C(O)Cc3ccccc3)N(n3cnnc3)C2C(=O)N1Cc1ccccc1 (stereo unspecified)

1: 1.04; 2: 0.209; 3: 0.671; 4: 0.647; 5: 0.477; 6: 0.385; 7: 1.05

Numbers sourced from PubChem BioAssay.
